The reported numbers originate from a collection of fitness landscapes (doi:10.1126/science.1257360).

B1: PhoQ; a variant is named by its letters at X, in order, P23837 (parent)
chain: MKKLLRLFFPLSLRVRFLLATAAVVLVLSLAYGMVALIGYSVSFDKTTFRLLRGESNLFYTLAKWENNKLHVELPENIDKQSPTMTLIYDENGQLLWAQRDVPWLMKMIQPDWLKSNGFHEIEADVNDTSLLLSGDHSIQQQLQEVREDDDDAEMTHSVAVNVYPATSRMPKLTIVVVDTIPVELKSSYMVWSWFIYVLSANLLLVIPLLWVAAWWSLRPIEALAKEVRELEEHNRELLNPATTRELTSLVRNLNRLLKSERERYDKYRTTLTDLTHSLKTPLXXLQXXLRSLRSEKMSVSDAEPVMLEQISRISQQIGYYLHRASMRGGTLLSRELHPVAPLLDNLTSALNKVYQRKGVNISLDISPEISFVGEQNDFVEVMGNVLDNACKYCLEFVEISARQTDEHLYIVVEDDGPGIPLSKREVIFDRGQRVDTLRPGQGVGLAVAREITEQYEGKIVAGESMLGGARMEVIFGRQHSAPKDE

variants of: B1; assay: enrichment ratio after two sorts for PhoP signalling (ratio (wild type AVST 3.29)); higher = more functional; conditions: with PhoP (E. coli)
Whole data set: some 140,000 sequences, median “enrichment ratio after two sorts for PhoP signalling” near 0, cut for the highest 2% near 11. For the sample, the highest values were picked, then their nearest neighbours and some sequences at random.
enrichment ratio values by entry

// known answers, use as guide
variant description: AIDP
enrichment ratio: ≤ 0.25
--
variant description: MHWQ
enrichment ratio: ≤ 0.25
--
variant description: MDAY
enrichment ratio: ≤ 0.25
--
variant description: EMAS
enrichment ratio: ≤ 0.25
--
variant description: LSTF
enrichment ratio: ≤ 0.25
--
variant description: NSEV
enrichment ratio: ≤ 0.25
--
variant description: KCTF
enrichment ratio: ≤ 0.25
--
variant description: LAFW
enrichment ratio: ≤ 0.25

Looking for the measured enrichment ratio of "TVTR" , can you help?
2.26

Need enrichment ratio, item "MKWH"
≤ 0.25

What value of measured enrichment ratio is listed for "AYSD" ?
≤ 0.25

# input variant: "APSK" ; wanted: its enrichment ratio
≤ 0.25

Consider the variant "GTSL" and give its measured enrichment ratio.
9.63

Consider the variant shown here: "AGTI" What is its recorded enrichment ratio?
16.7

Look at this variant and give its reported enrichment ratio. "MGWQ"
24.5

Need enrichment ratio of "CVSL" , thanks.
≤ 0.25

Which enrichment ratio value is on record for "DIIE" ?
≤ 0.25

Which measured enrichment ratio value corresponds to "QLWQ" ?
11.9

Which enrichment ratio value is on record for "TCTV" ?
12.6

# enrichment ratio lookup, item "MHEF"
≤ 0.25

Item "MMWQ" has what recorded enrichment ratio?
≤ 0.25

What does the record list as enrichment ratio for "NKPN" ?
≤ 0.25
